Would you mind telling me the reported CLH of each entry?
System: Liver microsomes
Assay: Intrinsic clearance in rat liver microsomes
Type: ADME, Microsome

Q) If you can, please state the reported CLH value of CC[C@H](C)[C@@H]1C(=O)N[C@H](C2Cc3ccccc3C2)C(=O)N1[C@@H](C(=O)N1CCOCC1)c1cnc(C)cc1C .
A) 1 mL/min/g

Q) If you can, please state the reported CLH value of CC[C@H](C)[C@@H]1C(=O)N[C@H](C2Cc3ccccc3C2)C(=O)N1[C@@H](C(=O)NC)c1cnc(C)cc1C .
A) 1 mL/min/g

Q) If you can, please state the reported CLH value of Cc1ccc([C@H](C(=O)N(C)C)N2C(=O)[C@@H](C3Cc4ccccc4C3)NC(=O)[C@H]2CC(C)(C)C)cn1 .
A) 3 mL/min/g

Q) If you can, please state the reported CLH value of CC[C@H](C)[C@@H]1C(=O)N[C@H](C2Cc3ccccc3C2)C(=O)N1[C@@H](C(=O)N1CCOCC1)c1ccc(C)nc1C .
A) < 1 mL/min/g

Q) If you can, please state the reported CLH value of CC[C@H](C)[C@@H]1C(=O)N[C@H](C2Cc3ccccc3C2)C(=O)N1[C@@H](C(=O)N(C)C)c1ccc(C)nc1C .
A) 1 mL/min/g

Q) If you can, please state the reported CLH value of CC[C@H](C)[C@@H]1C(=O)N[C@H](C2Cc3ccccc3C2)C(=O)N1[C@@H](C(=O)N(C)C)c1ccc(C)nc1 .
A) 1 mL/min/g

Q) If you can, please state the reported CLH value of CC[C@H](C)[C@@H]1C(=O)N[C@H](C2Cc3ccccc3C2)C(=O)N1[C@@H](C(=O)N(C)C)c1cc(C)cnc1C .
A) 1 mL/min/g

----------
Assay: Clearance in rat at 5 mg/kg
Assay type: ADME, organism-based
Set-up: dose 5 mg/kg
Settings: in vivo
Classify as follows. Reported clearance greater than or equal to 20 mL/min/kg: Met. Reported clearance below: Not met.

Q) Please check the record CC[C@H](C)[C@@H]1C(=O)N[C@H](C2Cc3ccccc3C2)C(=O)N1[C@@H](C(=O)NC)c1cnc(C)cc1C and state if its clearance is at or above 20 mL/min/kg.
A) Met

Q) Please check the record CC[C@H](C)[C@@H]1C(=O)N[C@H](C2Cc3ccccc3C2)C(=O)N1[C@@H](C(=O)N(C)C)c1ccc(C)nc1C and state if its clearance is at or above 20 mL/min/kg.
A) Not met

Q) Please check the record COc1ccc([C@H](C(=O)N2CCOCC2)N2C(=O)[C@@H](C3Cc4ccccc4C3)NC(=O)[C@H]2CC(C)C)cn1 and state if its clearance is at or above 20 mL/min/kg.
A) Met

Q) Please check the record COc1ccc([C@H](C(=O)N(C)C)N2C(=O)[C@@H](C3Cc4ccccc4C3)NC(=O)[C@H]2CC(C)C)cn1 and state if its clearance is at or above 20 mL/min/kg.
A) Met

Q) Please check the record CC[C@@H](C)[C@@H]1C(=O)N[C@H](C2Cc3ccccc3C2)C(=O)N1[C@@H](C(=O)N1CCOCC1)c1ccc(C)nc1 and state if its clearance is at or above 20 mL/min/kg.
A) Met

Q) Please check the record CC[C@H](C)[C@@H]1C(=O)N[C@H](C2Cc3ccccc3C2)C(=O)N1[C@@H](C(=O)N(C)C)c1ccc(C)[n+]([O-])c1 and state if its clearance is at or above 20 mL/min/kg.
A) Met

Q) Please check the record CC(C)C[C@@H]1C(=O)N[C@H](C2Cc3ccccc3C2)C(=O)N1[C@@H](C(=O)N(C)C)c1ccc(F)cc1F and state if its clearance is at or above 20 mL/min/kg.
A) Not met

----------
Assay: Clearance in rat at 5 mg/kg
Assay type: ADME, organism-based
Parameters: dose 5 mg/kg
Conditions: in vivo
Would you mind telling me the reported clearance of each entry?
Response body: numeric value in mL/min/kg, unit text excluded.

Q) If you can, please state the reported clearance value of Cc1ccc([C@H](C(=O)N2CCCC2)N2C(=O)[C@@H](C3Cc4ccccc4C3)NC(=O)[C@H]2CC(C)C)cn1 .
A) 33

Q) If you can, please state the reported clearance value of CCC(CC)[C@@H]1C(=O)N[C@H](C2Cc3ccccc3C2)C(=O)N1[C@@H](C(=O)NC)c1ccc(C)nc1 .
A) 17

Q) If you can, please state the reported clearance value of CC[C@H](C)[C@@H]1C(=O)N[C@H](C2Cc3ccccc3C2)C(=O)N1[C@@H](C(=O)N(C)C)c1ccc(C)nc1 .
A) 19

Q) If you can, please state the reported clearance value of CCC(CC)[C@@H]1C(=O)N[C@H](C2Cc3ccccc3C2)C(=O)N1[C@@H](C(=O)N(C)C)c1ccc(C)nc1 .
A) 20

----------
Test system: Liver microsomes
Experiment: Intrinsic clearance in human liver microsomes
Assay type: ADME, Microsome
Classify as follows. Reported CLH greater than or equal to 7 mL/min/g: 1.0. Reported CLH below: 0.0.

Q) Please check the record CC[C@H](C)[C@@H]1C(=O)N[C@H](C2Cc3ccccc3C2)C(=O)N1[C@@H](C(=O)N1CCOCC1)c1coc(C)n1 and state if its CLH is at or above 7 mL/min/g.
A) 0.0

Q) Please check the record CCC(CC)[C@@H]1C(=O)N[C@H](C2Cc3ccccc3C2)C(=O)N1[C@@H](C(=O)N(C)C)c1ccc(C)nc1C and state if its CLH is at or above 7 mL/min/g.
A) 1.0

Q) Please check the record CC[C@H](C)[C@@H]1C(=O)N[C@H](C2Cc3ccccc3C2)C(=O)N1[C@@H](C(=O)NC)c1ccc(C)nc1C and state if its CLH is at or above 7 mL/min/g.
A) 0.0

Q) Please check the record CC[C@H](C)[C@@H]1C(=O)N[C@H](C2Cc3ccccc3C2)C(=O)N1[C@@H](C(=O)N(C)C)c1cnc(C)cc1C and state if its CLH is at or above 7 mL/min/g.
A) 1.0

Q) Please check the record CC[C@H](C)[C@@H]1C(=O)N[C@H](C2Cc3ccccc3C2)C(=O)N1[C@@H](C(=O)N(C)C)c1cc(C)cnc1C and state if its CLH is at or above 7 mL/min/g.
A) 0.0

Q) Please check the record CC[C@H](C)[C@@H]1C(=O)N[C@H](C2Cc3ccccc3C2)C(=O)N1[C@@H](C(=O)N(C)C)c1ccc(C)nc1 and state if its CLH is at or above 7 mL/min/g.
A) 0.0

----------
Test: Lipophilicity, log D of the compound by HPLC analysis
Format: physicochemical
Would you mind telling me the reported logD of each entry?
// keep it numeric: no unit symbol after the value

Q) If you can, please state the reported logD value of COc1ccc([C@H](C(=O)N2CCOCC2)N2C(=O)[C@@H](C3Cc4ccccc4C3)NC(=O)[C@H]2CC(C)C)cn1 .
A) 2.7

Q) If you can, please state the reported logD value of CC(C)C[C@@H]1C(=O)N[C@H](C2Cc3ccccc3C2)C(=O)N1[C@@H](C(=O)N(C)C)c1ccc(N(C)C)nc1 .
A) 2.6

Q) If you can, please state the reported logD value of Cc1ccc([C@H](C(=O)N(C)C)N2C(=O)[C@@H](C3Cc4ccccc4C3)NC(=O)[C@H]2CC(C)C)cn1 .
A) 2.1

Q) If you can, please state the reported logD value of COc1ccc([C@H](C(=O)N(C)C)N2C(=O)[C@@H](C3Cc4ccccc4C3)NC(=O)[C@H]2CC(C)C)cn1 .
A) 2.7

Q) If you can, please state the reported logD value of CC[C@H](C)[C@@H]1C(=O)N[C@H](C2Cc3ccccc3C2)C(=O)N1[C@@H](C(=O)N1CCOCC1)c1ccc(C)nc1C .
A) 2.2

Q) If you can, please state the reported logD value of CC(C)C[C@@H]1C(=O)N[C@H](C2Cc3ccccc3C2)C(=O)N1[C@@H](C(=O)N(C)C)c1ccc(F)cc1F .
A) 3.4

Q) If you can, please state the reported logD value of Cc1ccc([C@H](C(=O)N2CCOCC2)N2C(=O)[C@@H](C3Cc4ccccc4C3)NC(=O)[C@H]2CC(C)C)cn1 .
A) 2.1

Q) If you can, please state the reported logD value of CC(C)C[C@@H]1C(=O)N[C@H](C2Cc3ccccc3C2)C(=O)N1[C@@H](C(=O)N(C)C)c1ccc(=O)[nH]c1 .
A) 1.3

Q) If you can, please state the reported logD value of Cc1ccc([C@H](C(=O)N2CCCC2)N2C(=O)[C@@H](C3Cc4ccccc4C3)NC(=O)[C@H]2CC(C)C)cn1 .
A) 2.3

Q) If you can, please state the reported logD value of CC(C)C[C@@H]1C(=O)N[C@H](C2Cc3ccccc3C2)C(=O)N1[C@@H](C(=O)N1CCOCC1)c1ccc(N(C)C)nc1 .
A) 2.9
